# phosphorylation enrichment values compiled below
target: Fyn (UniProt P06241); experiment: phosphorylation enrichment, bacterial display (enrichment ratio); higher = better substrate or ligand; peptides without Tyr show the background;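 also: 11-residue human phosphosite peptides and single-mutation variants displayed on the E. coli surface, counted by deep sequencing, each peptide's frequency after selection divided by its frequency in the unselected input library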;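 also: frequency after pTyr selection over input frequency; kinase dosed for 20-30% of maximal phosphorylation in three min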
Sequence (P06241 whole entry, looked up): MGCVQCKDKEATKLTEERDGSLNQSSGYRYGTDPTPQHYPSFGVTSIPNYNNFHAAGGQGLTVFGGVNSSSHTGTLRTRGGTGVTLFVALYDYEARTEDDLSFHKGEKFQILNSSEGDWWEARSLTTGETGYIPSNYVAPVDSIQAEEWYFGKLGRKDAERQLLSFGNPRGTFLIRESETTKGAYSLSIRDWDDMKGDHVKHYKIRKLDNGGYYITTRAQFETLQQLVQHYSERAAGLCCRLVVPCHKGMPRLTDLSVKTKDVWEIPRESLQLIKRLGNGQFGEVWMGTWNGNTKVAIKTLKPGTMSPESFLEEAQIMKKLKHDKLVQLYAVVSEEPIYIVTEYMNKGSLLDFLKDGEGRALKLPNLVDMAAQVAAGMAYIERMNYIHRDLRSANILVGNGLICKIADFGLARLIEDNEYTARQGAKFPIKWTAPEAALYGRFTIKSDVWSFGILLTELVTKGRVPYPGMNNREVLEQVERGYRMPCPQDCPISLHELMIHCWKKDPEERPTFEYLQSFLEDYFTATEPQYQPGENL
Assay Readout: phosphorylation enrichment

[
  {
    "Macromolecule Sequence": "KDQPDYKYQPR [SOX9_Y172_H169Q]",
    "Measurement": 0.446
  },
  {
    "Macromolecule Sequence": "IDQDKYAVRFI [FLNA_Y2388]",
    "Measurement": 0.488
  },
  {
    "Macromolecule Sequence": "PSQRHYVFFFS [PTEN_Y174_R173H_YF]",
    "Measurement": 0.757
  },
  {
    "Macromolecule Sequence": "GASRRYGSGVS [NEU1_Y242_W240R]",
    "Measurement": 0.384
  },
  {
    "Macromolecule Sequence": "VFGEEYEEQPR [ZMYM2_Y1033]",
    "Measurement": 0.534
  },
  {
    "Macromolecule Sequence": "GLDSSYLLRDS [SH2D1A_Y29_G27S]",
    "Measurement": 0.386
  },
  {
    "Macromolecule Sequence": "LFSLGYHQSLW [GANAB_Y396_R400L]",
    "Measurement": 0.475
  },
  {
    "Macromolecule Sequence": "WIPIQCPIISE [NOG_Y222_Y222C]",
    "Measurement": 0.551
  },
  {
    "Macromolecule Sequence": "SASQEYHIVKK [PDZD2_Y557]",
    "Measurement": 0.422
  },
  {
    "Macromolecule Sequence": "NDQPDYDSVAS [GIT2_Y392]",
    "Measurement": 0.546
  },
  {
    "Macromolecule Sequence": "SLRAHYDTPRS [DOK7_Y405]",
    "Measurement": 0.349
  },
  {
    "Macromolecule Sequence": "RGLQVYHRRNA [LRP2_Y2010]",
    "Measurement": 0.964
  },
  {
    "Macromolecule Sequence": "DKEKWYPLGTS [PIK3C2G_Y1438_N1442T]",
    "Measurement": 0.505
  },
  {
    "Macromolecule Sequence": "PLTKVYVVEGS [ZMPSTE24_Y253]",
    "Measurement": 0.494
  },
  {
    "Macromolecule Sequence": "AAVDEYLEFRR [FAM221A_Y17_YF]",
    "Measurement": 0.949
  },
  {
    "Macromolecule Sequence": "MDDDQYALLTT [EFCAB6_Y675]",
    "Measurement": 0.64
  },
  {
    "Macromolecule Sequence": "VKGGAYNPVTV [MCCC2_Y145_Y146N]",
    "Measurement": 0.456
  },
  {
    "Macromolecule Sequence": "QTEAEYRFIYM [PTPN11_Y511_Q510E]",
    "Measurement": 0.828
  },
  {
    "Macromolecule Sequence": "LTMAPYSSVSV [FAM81A_Y24_L29V]",
    "Measurement": 0.575
  },
  {
    "Macromolecule Sequence": "KAIMTYVFSFY [ACTN4_Y260_S262F]",
    "Measurement": 0.438
  },
  {
    "Macromolecule Sequence": "SLMNQYVNKEF [RAB7A_Y28_K32E]",
    "Measurement": 0.461
  },
  {
    "Macromolecule Sequence": "LEFNEYFRDLN [HPRT1_Y198_D194E_YF]",
    "Measurement": 0.992
  },
  {
    "Macromolecule Sequence": "LSCLAYSGKDA [FXN_Y205_S202C]",
    "Measurement": 0.52
  },
  {
    "Macromolecule Sequence": "KNNDGNIDFAE [MCFD2_Y135_Y135N_YF]",
    "Measurement": 0.558
  },
  {
    "Macromolecule Sequence": "VTAALYGRLYE [BTD_Y536]",
    "Measurement": 5.26
  },
  {
    "Macromolecule Sequence": "APAHKYHGGGG [HBD_Y146_L142P]",
    "Measurement": 0.328
  },
  {
    "Macromolecule Sequence": "IKNFKYGIEEH [GJA1_Y137_K134N]",
    "Measurement": 0.335
  },
  {
    "Macromolecule Sequence": "QTEAQYRFIYM [PTPN11_Y511]",
    "Measurement": 0.634
  },
  {
    "Macromolecule Sequence": "SAVTGYRVNVI [FN1_Y937_D940N]",
    "Measurement": 0.403
  },
  {
    "Macromolecule Sequence": "PKFHSYVSLPF [PLXNA2_Y293]",
    "Measurement": 0.903
  },
  {
    "Macromolecule Sequence": "QEGPEYWDQET [HLA-A_Y83]",
    "Measurement": 0.739
  },
  {
    "Macromolecule Sequence": "GGSDCYGSLRP [MYLK_Y846_R845C]",
    "Measurement": 2.79
  },
  {
    "Macromolecule Sequence": "IMWDSYTTNKV [GNB3_Y85_V81M]",
    "Measurement": 0.33
  },
  {
    "Macromolecule Sequence": "LGEGSYGKVKE [STK11_Y60]",
    "Measurement": 0.939
  },
  {
    "Macromolecule Sequence": "KQFWRYFPGNL [SLC25A4_Y112_A114P]",
    "Measurement": 0.35
  },
  {
    "Macromolecule Sequence": "NTGNYYDLYGG [PTPN11_Y63_D61N]",
    "Measurement": 6.39
  },
  {
    "Macromolecule Sequence": "GRPLSYWLTGC [LYZL6_Y140_F139S]",
    "Measurement": 0.527
  },
  {
    "Macromolecule Sequence": "EEQKKYYNAMK [SCN5A_Y1494]",
    "Measurement": 0.458
  },
  {
    "Macromolecule Sequence": "VYSTDCYRVGG [NTRK2_Y706_Y706C]",
    "Measurement": 2.56
  },
  {
    "Macromolecule Sequence": "EKQVAYCPSGR [ROS1_Y2323_K2328R]",
    "Measurement": 0.569
  },
  {
    "Macromolecule Sequence": "PGLSSYGVPAS [FLNB_Y1530]",
    "Measurement": 0.661
  },
  {
    "Macromolecule Sequence": "SGIYQYIIAKF [FOXL2_Y83]",
    "Measurement": 4.03
  },
  {
    "Macromolecule Sequence": "TDECEYDELIV [TGM1_Y136_Y134C]",
    "Measurement": 2.06
  },
  {
    "Macromolecule Sequence": "KLVQLYGVCTK [BTK_Y461]",
    "Measurement": 1.25
  },
  {
    "Macromolecule Sequence": "CEQELYSQLVF [WAS_Y102_W97C_YF]",
    "Measurement": 6.89
  },
  {
    "Macromolecule Sequence": "AEVDTYCRHNF [HLA-DRB1_Y107_A103E_YF]",
    "Measurement": 0.567
  },
  {
    "Macromolecule Sequence": "RLSELYLRRNP [CFAP410_Y68_R73P]",
    "Measurement": 0.407
  },
  {
    "Macromolecule Sequence": "YLNSSYINIST [IL23R_Y178_T175N]",
    "Measurement": 0.475
  },
  {
    "Macromolecule Sequence": "SSQAHYRLSAF [ADAMTS9_Y100]",
    "Measurement": 0.449
  },
  {
    "Macromolecule Sequence": "EKMWTYMPSAE [GRIA4_Y695_R697P]",
    "Measurement": 0.377
  },
  {
    "Macromolecule Sequence": "YETVKYFNNER [ABCB7_Y345]",
    "Measurement": 1.37
  },
  {
    "Macromolecule Sequence": "LLILEYAKYGS [RET_Y806_V804L]",
    "Measurement": 0.587
  },
  {
    "Macromolecule Sequence": "DTFDPYLDIAL [USP36_Y268_V271I_YF]",
    "Measurement": 0.692
  },
  {
    "Macromolecule Sequence": "TVHCDYLNIPH [TAF1L_Y1385]",
    "Measurement": 0.464
  },
  {
    "Macromolecule Sequence": "GLSSAYGDLTS [KRT8_Y427_G429D]",
    "Measurement": 0.454
  },
  {
    "Macromolecule Sequence": "FADPFYDFEIE [ZC3H18_Y372_YF]",
    "Measurement": 3.26
  },
  {
    "Macromolecule Sequence": "AGQEDYDRLRP [CDC42_Y64]",
    "Measurement": 0.546
  }
]
